Quick reference: inhibition of the listed items.
Test: growth suppression of yeast trafficking mutant, preliminary HTS, modulators of trafficking downstream of Golgi apparatus project, 1536-format plate, OD 615 nm (AID 637); also: test concentration not given here
Conditions: yeast transport mutant growth, absorbance 615 nm, 18 h; stronger effect = higher value
measured_property: inhibition (%)

1) CC(C)Cn1c(N)c(C(=O)NCCN2CCOCC2)c2nc3ccccc3nc21 = 3.65
2) CC1(c2ccncc2)Nc2ccccc2-c2nc3ccccc3n21 (centres undefined) = -0.95
3) Cc1cc2c(c(=O)n1CCN(C)C)C(c1ccncc1)C(C#N)=C(N)O2 (centres undefined) = -6.51
4) CN(C)CCSc1nnc2sc3ccccc3n12 = -5.08
